These measurements were taken from patent US20220177587A1.

- experimental-target: huPD-L1 (Homo sapiens, UniProt Q9NZQ7)
- Sequence (Q9NZQ7 19-290): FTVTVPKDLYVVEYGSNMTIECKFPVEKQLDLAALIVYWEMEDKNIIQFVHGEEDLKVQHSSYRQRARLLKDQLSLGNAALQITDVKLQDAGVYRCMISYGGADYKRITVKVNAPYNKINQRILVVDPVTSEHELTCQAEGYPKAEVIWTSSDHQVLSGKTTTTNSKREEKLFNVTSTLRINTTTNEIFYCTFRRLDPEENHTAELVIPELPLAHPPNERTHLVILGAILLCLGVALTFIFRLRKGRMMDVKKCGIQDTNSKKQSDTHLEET
- assay-name: Flow binding to CHO cells stably expressing PD-L1
- Parameters: huCTLA4 and huPD-L1, full-length mammalian surface expression constructs were generated; expressed in transfected cells; host or cells: CHO cells, lentiviral transduction, sorted to >98% purity
- condition-info: Table E11; CHO cells stably expressing PD-L1; 33.3 nM
measure: PD-L1 MFI at 33.3 nM
I only need the number, thanks.

Examples with answers:
molecule	PD-L1 MFI at 33.3 nM
T13R/Q33R/E35D/M38I/M47L/V68M (protein, UniProt P33681 35-288, looked up, variant T13R Q33R E35D M38I M47L V68M) T-lymphocyte activation …: VIHVTKEVKEVARLSCGHNVSVEELAQTRIYWRKDKKIVLTMMSGDLNIWPEYKNRTIFDITNNLSIMILALRPSDEGTYECVVLKYEKDAFKREHLAEVTLSVKADFPTPSISDFEIPTSNIRRIICSTSGGFPEPHLSWLENGEELNAINTTVSQDPETELYAVSSKLDFNMTTNHSFMCLIKYGHLRVNQTFNWNTTKQEHFPDNLLPSWAITLISVNGIFVICCLTYCFAPRCRERRRNERLRRESVRPV	4482
E35D/M47V/N48KN68M/L85M (protein) VIHVTKEVKEVATLSCGHNVSVEELAQTRIYWQKDKKMVLTMMSGDVKIWPEYKNRTIFDITNNLSIMILALRPSDEGTYECVVMKYEKDAFKREHLAEVTLSVKAD	7618
T13R/Q33R/E35D/M38I/M47L/V68M/L85M (protein, UniProt P33681 35-288, looked up, variant T13R Q33R E35D M38I M47L V68M L85M) T-lymphocyte activation …: VIHVTKEVKEVARLSCGHNVSVEELAQTRIYWRKDKKIVLTMMSGDLNIWPEYKNRTIFDITNNLSIMILALRPSDEGTYECVVMKYEKDAFKREHLAEVTLSVKADFPTPSISDFEIPTSNIRRIICSTSGGFPEPHLSWLENGEELNAINTTVSQDPETELYAVSSKLDFNMTTNHSFMCLIKYGHLRVNQTFNWNTTKQEHFPDNLLPSWAITLISVNGIFVICCLTYCFAPRCRERRRNERLRRESVRPV	1106
H18Y/E35D/M47L/Y53F/V68M/A71G (protein, UniProt P33681 35-288, looked up, variant H18Y E35D M47L Y53F V68M A71G) T-lymphocyte activation …: VIHVTKEVKEVATLSCGYNVSVEELAQTRIYWQKDKKMVLTMMSGDLNIWPEFKNRTIFDITNNLSIMILGLRPSDEGTYECVVLKYEKDAFKREHLAEVTLSVKADFPTPSISDFEIPTSNIRRIICSTSGGFPEPHLSWLENGEELNAINTTVSQDPETELYAVSSKLDFNMTTNHSFMCLIKYGHLRVNQTFNWNTTKQEHFPDNLLPSWAITLISVNGIFVICCLTYCFAPRCRERRRNERLRRESVRPV	5105
T13R/E35D/M47LN68M (protein) VIHVTKEVKEVARLSCGHNVSVEELAQTRIYWQKDKKMVLTMMSGDLNIWPEYKNRTIFDITNNLSIMILALRPSDEGTYECVVLKYEKDAFKREHLAEVTLSVKAD	19969
E35D/M47L/Y53F/V68M/A71G/K93R/E95V (protein, UniProt P33681 35-288, looked up, variant E35D M47L Y53F V68M A71G K93R E95V) T-lymphocyte activation …: VIHVTKEVKEVATLSCGHNVSVEELAQTRIYWQKDKKMVLTMMSGDLNIWPEFKNRTIFDITNNLSIMILGLRPSDEGTYECVVLKYEKDAFRRVHLAEVTLSVKADFPTPSISDFEIPTSNIRRIICSTSGGFPEPHLSWLENGEELNAINTTVSQDPETELYAVSSKLDFNMTTNHSFMCLIKYGHLRVNQTFNWNTTKQEHFPDNLLPSWAITLISVNGIFVICCLTYCFAPRCRERRRNERLRRESVRPV	25024
E35D/M47V/N48KN68M/A71G/L85M (protein) VIHVTKEVKEVATLSCGHNVSVEELAQTRIYWQKDKKMVLTMMSGDVKIWPEYKNRTIFDITNNLSIMILGLRPSDEGTYECVVMKYEKDAFKREHLAEVTLSVKAD	22770
E35D/M47L/V68M/E95V/L97Q (protein, UniProt P33681 35-288, looked up, variant E35D M47L V68M E95V L97Q, Fc fusion) T-lymphocyte activation …: VIHVTKEVKEVATLSCGHNVSVEELAQTRIYWQKDKKMVLTMMSGDLNIWPEYKNRTIFDITNNLSIMILALRPSDEGTYECVVLKYEKDAFKRVHQAEVTLSVKADFPTPSISDFEIPTSNIRRIICSTSGGFPEPHLSWLENGEELNAINTTVSQDPETELYAVSSKLDFNMTTNHSFMCLIKYGHLRVNQTFNWNTTKQEHFPDNLLPSWAITLISVNGIFVICCLTYCFAPRCRERRRNERLRRESVRPV	18600
H18Y/E35D/M38I/M47L/V68M/L85M (protein, UniProt P33681 35-288, looked up, variant H18Y E35D M38I M47L V68M L85M) T-lymphocyte activation …: VIHVTKEVKEVATLSCGYNVSVEELAQTRIYWQKDKKIVLTMMSGDLNIWPEYKNRTIFDITNNLSIMILALRPSDEGTYECVVMKYEKDAFKREHLAEVTLSVKADFPTPSISDFEIPTSNIRRIICSTSGGFPEPHLSWLENGEELNAINTTVSQDPETELYAVSSKLDFNMTTNHSFMCLIKYGHLRVNQTFNWNTTKQEHFPDNLLPSWAITLISVNGIFVICCLTYCFAPRCRERRRNERLRRESVRPV	3589

Okay, now this molecule:
### Prompt Dear colleague, I am looking for the recorded PD-L1 MFI at 33.3 nM of the following molecule: V22D/E24D/E35D/M47L/V68M (protein, CD80 v383 ECD) VIHVTKEVKEVATLSCGHNVSDEDLAQTRIYWQKDKKMVLTMMSGDLNIWPEYKNRTIFDITNNLSIMILALRPSDEGTYECVVLKYEKDAFKREHLAEVTLSVKADFPTPSISDFETPTSNIRRIICSTSGGFPEPHLSWLENGEELNAINTTVSQDPETELYAVSSKLDFNMTTNHSFMCLIKYGHLRVNQTFNWNTTKQEHFPDN
### Response 15418
